Cited source for all entries: ChEMBL document CHEMBL5058564

Growth Rate reference
Test system: HEK-293T
Experiment: Incucyte cell viability with HEK293T; further: unitless GR value; below 1 slowed growth and below 0 cell loss
Type: toxicity, cell-based
Conditions: human, 24 h, 10 µM, compound concentration 10 uM, replicate number 1, timepoint 24 hours
Answer with a bare number; do not write a unit.

COc1ccc2c(c1)C(C(=O)N(Cc1ccc(N(C)C)cc1)c1ccc(C(C)C)cc1)CCC2.Cl (centres undefined)
0.52

// query Growth Rate value for entry `CC#C[C@@H](CC(=O)O)c1ccc(OCc2cccc(-c3ccc(C(F)(F)F)cc3)c2)cc1`
0.68

// query Growth Rate value for entry `O=c1ccn([C@@H]2O[C@H](COP(=O)([O-])OP(=O)([O-])OP(=O)([O-])O)[C@@H](O)[C@H]2O)c(=O)[nH]1.[Na+].[Na+].[Na+]`
0.85

// query Growth Rate value for entry `COC(=O)[C@H](CCCNC(=N)N)NC(=O)CCCc1c(-c2ccccc2)[nH]c2c(F)cc(F)cc12.O=C(O)C(F)(F)F`
0.66

###

Tested on: HEK-293T
Test: Incucyte cell viability with HEK293T; further: unitless GR value; below 1 slowed growth and below 0 cell loss
Type: toxicity, cell-based
Conditions: human, 0 h, 10 µM, compound concentration 10 uM, replicate number 2, timepoint 0 hours
Growth Rate reference
Answer with a bare number; do not write a unit.

Nc1cnc(N2CCc3cc(S(=O)(=O)Nc4c(F)cc(Cl)cc4F)cc(N4CCCC4=O)c32)nc1 [TP-020n]
0.76
C[C@H](CCC(=O)O)[C@H]1CC[C@H]2[C@@H]3CC[C@@H]4C[C@H](O)CC[C@]4(C)[C@H]3CC[C@]12C [LITHOCHOLIC ACID]
0.75
CCOC(=O)c1c(/C(C#N)=C\N)c2ccc(Cl)c(Cl)c2n1C
0.59
CN(C)CCn1cc(S(=O)(=O)c2cccc(F)c2)c2cccnc21.Cl.Cl
0.35
Cc1nc[nH]c1CCN.Cl
0.64

// query Growth Rate value for entry Cc1ccccc1N1CCN(CCc2nnc3n2CCCC3)CC1.Cl [DAPIPRAZOLE HYDROCHLORIDE]
-0.18

// query Growth Rate value for entry `N[C@@]1(C(=O)O)CC[C@H]2[C@H](C(=O)O)[C@H]21`
0.94

// query Growth Rate value for entry COC[C@@H](c1ccc(C(F)(F)F)cc1)N1CCN(C2(C)CCN(C(=O)c3c(C)ncnc3C)CC2)C[C@@H]1C.O=C(O)/C=C\C(=O)O [VICRIVIROC MALEATE]
-1

// query Growth Rate value for entry Cl.Cl.NCCc1c[nH]cn1 [HISTAMINE DIHYDROCHLORIDE]
0.62

###

System: U2OS
Assay: Incucyte cell viability with U2OS; further: unitless GR value; below 1 slowed growth and below 0 cell loss
Type: toxicity, cell-based
Settings: human, 0 h, 10 µM, compound concentration 10 uM, replicate number 1, timepoint 0 hours
Quick rule for you: Growth Rate at 0.2 or higher means Condition met, lower means Condition not met.

Please review the entries below; each comes with its answer.
COc1ccc(CN(CCN(C)C)c2ccccn2)cc1 [PYRILAMINE]
Condition met
CCCN(CCC)CCc1cccc2c1CC(=O)N2.Cl [ROPINIROLE HYDROCHLORIDE]
Condition met
CN(C(=O)c1ccccc1)c1cc(N(C)c2ccc3c(c2)CCc2ccc(C(=O)NCCN4CCOCC4)cc2C3=O)ccc1F [FM-743]
Condition met

Is Growth Rate at least 0.2? Consider `CN[C@@H]1Cc2cccc3[nH]c(=O)n(c23)C1.O=C(O)/C=C\C(=O)O`
Condition not met

Is Growth Rate at least 0.2? Consider CN(C)[C@H]1CN(C2CCc3cccc(F)c32)C[C@@H]1c1ccc(N2CCN(S(C)(=O)=O)CC2)cc1 (some centres undefined)
Condition not met

Is Growth Rate at least 0.2? Consider `CCN1/C(=C/C(C)=O)Sc2ccc(OC(C)=O)cc21`
Condition not met

Is Growth Rate at least 0.2? Consider `O=C([O-])[C@H]1O[C@H](OP(=O)([O-])OP(=O)([O-])OC[C@H]2O[C@@H](n3ccc(=O)[nH]c3=O)[C@H](O)[C@@H]2O)[C@H](O)[C@@H](O)[C@@H]1O.[Na+].[Na+].[Na+]`
Condition met

Is Growth Rate at least 0.2? Consider `CCCn1c(=O)c2[nH]c(C3CCCC3)nc2n(CCC)c1=O`
Condition not met
